target_entity: T1, human ASIC1b (hASIC1b-eYFP) (Homo sapiens, UniProt P78348)
T1 construct: expressed in transfected cells; host or cells: CHO-K1 (transient)
T1 sequence (P78348 1-562 isoform P78348-3): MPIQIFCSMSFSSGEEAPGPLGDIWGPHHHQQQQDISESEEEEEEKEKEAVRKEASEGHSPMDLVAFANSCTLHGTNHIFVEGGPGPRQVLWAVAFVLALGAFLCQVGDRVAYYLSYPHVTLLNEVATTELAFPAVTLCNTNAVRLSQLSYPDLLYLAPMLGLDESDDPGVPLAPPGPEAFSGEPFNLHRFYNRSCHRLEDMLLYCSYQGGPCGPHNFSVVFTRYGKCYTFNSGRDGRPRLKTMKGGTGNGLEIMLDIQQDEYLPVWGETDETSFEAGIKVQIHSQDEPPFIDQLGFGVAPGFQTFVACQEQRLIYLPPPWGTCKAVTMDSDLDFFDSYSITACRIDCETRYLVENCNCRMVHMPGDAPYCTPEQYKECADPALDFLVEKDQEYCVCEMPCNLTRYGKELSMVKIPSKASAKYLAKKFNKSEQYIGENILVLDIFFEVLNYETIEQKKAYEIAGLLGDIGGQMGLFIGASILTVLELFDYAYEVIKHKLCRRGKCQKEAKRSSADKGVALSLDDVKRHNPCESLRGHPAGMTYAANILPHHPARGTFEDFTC
method_description: FACS-based binding assay, transiently transfected CHO-K1 cells (isotype selectivity)
Source text: To examine the ASIC isotype selectivity of ASC06-IgG1 affinity-matured antibodies, plasmids encoding fusion proteins of eYFP with isoforms of […] were constructed. These plasmids included those encoding human ASIC1b (hASIC1b-eYFP), human ASIC2a (hASIC2a-eYFP), and human ASIC3a (hASIC3a-eYFP). CHO-K1 cells were transiently transfected with these plasmids and used in a FACS-based binding assay disclosed herein. […]
endpoint_label: binding to the hASIC1b isoform

molecule	observed_result
ASC06-03-IgG1: affinity-matured ASC06 derivative, VH-CDR3 DSFYGRAKGS (SEQ ID NO: 15) (antibody, V domains shown) VH: QVQLQQSGGGLVQPGGSLRLSCAASGFTFSSYAMSWVRQAPGKGLEWVSAISGSGGSTYYADSVKGRFTISRDNSKNTLYLQMNSLRAEDTAVYYCAKDSFYGRAKGSWGQGTLVTVSS VL: QSALTQPASVSGSPGQSITISCTGTSSDVGAYNYVSWYQQQPGKAPKLMIYGVSNRPSGVSNRFSGSKSGNAASLTISGLQAEDEADYYCSSYTSSSTYVFGTGTKLTVLG	no detectable binding
ASC06-02-IgG1: affinity-matured ASC06 derivative, VH-CDR3 DSFFGRAKGS (SEQ ID NO: 13) (antibody, V domains shown) VH: QVQLQQSGGGLVQPGGSLRLSCAASGFTFSSYAMSWVRQAPGKGLEWVSAISGSGGSTYYADSVKGRFTISRDNSKNTLYLQMNSLRAEDTAVYYCAKDSFFGRAKGSWGQGTLVTVSS VL: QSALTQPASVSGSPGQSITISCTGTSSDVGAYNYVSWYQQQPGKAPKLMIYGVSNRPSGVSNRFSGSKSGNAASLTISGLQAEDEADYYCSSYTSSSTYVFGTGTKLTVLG	no detectable binding
ASC06-04-IgG1: affinity-matured ASC06 derivative, VH-CDR3 DSFYGRAKGV (SEQ ID NO: 17) (antibody, V domains shown) VH: QVQLQQSGGGLVQPGGSLRLSCAASGFTFSSYAMSWVRQAPGKGLEWVSAISGSGGSTYYADSVKGRFTISRDNSKNTLYLQMNSLRAEDTAVYYCAKDSFYGRAKGVWGQGTLVTVSS VL: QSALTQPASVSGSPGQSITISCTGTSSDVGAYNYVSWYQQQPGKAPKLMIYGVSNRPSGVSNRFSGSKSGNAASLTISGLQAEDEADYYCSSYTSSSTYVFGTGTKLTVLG	no detectable binding

Origin of measurements: patent US20230174642A1
